# experimentalTarget: Trace amine-associated receptor 1 (Homo sapiens)
# protocolText: blockers of beta-PEA-driven TAAR1 calcium signal – Fluo-8 calcium fluorescence, CHO RD-HGA16 cells, primary screen (AID 624466);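 further: 0% = DMSO plus EC80 beta-PEA response and 100% = DMSO alone without agonist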
# conditionNotes: CHO RD-HGA16 TAAR1, Fluo-8 calcium fluorescence, antagonist; at 3 µM
The campaign covered roughly 360,000 compounds. About 5,400 (1.5%) were called active.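 How the source made its calls: active means inhibition above a per-plate cutoff, the mean inhibition of test compounds on that plate plus 3 SD (cut at about 49% in these data); inactive means the rest.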 The sample as a whole holds a higher share of actives than the screen did.
Entry note: the call must match one of Yes for active, No for inactive

Solved cases below.
compound	answerLabel
Cc1ccccc1-n1nnc2c(=O)oc3ccccc3c21	No
O=C(CSc1nc2ccccc2c(=O)n1CCCO)N1CCc2ccccc21	No
COc1ccc(C(=O)N(C)Cc2ccc(OC)c(OC)c2OC)cc1S(=O)(=O)N1CCOCC1	No
Nc1c(C(=O)c2cccs2)sc2nsc(SCCN3CCCCC3)c12	Yes
O=C(N/N=C/c1ccccc1O)/C(=C/c1ccccc1)CCO	No
O=C(NCc1ccccc1)[C@@H]1CCCN1C(=O)[C@@H](NS(=O)(=O)c1ccc(F)cc1F)C1CCCCC1	No

# evaluate next
-- ask Name the outcome recorded for `NC(=O)c1oc2ccccc2c1NC(=O)Cc1ccccc1` in the assay.
-- reply No

====

Measured inhibition of individual entries
# experimentalTarget: Trace amine-associated receptor 1 (Homo sapiens)
# protocolText: blockers of beta-PEA-driven TAAR1 calcium signal – Fluo-8 calcium fluorescence, CHO RD-HGA16 cells, primary screen (AID 624466);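 further: 0% = DMSO plus EC80 beta-PEA response and 100% = DMSO alone without agonist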
# conditionNotes: CHO RD-HGA16 TAAR1, Fluo-8 calcium fluorescence, antagonist; at 3 µM; active compounds read high
Screen size: about 360,000 compounds; about 5,400 (1.5%) were called active. What follows is part of a selection rich in actives, with near analogues and random picks from the rest.
The figure you give is taken to be in %; do not add the unit.

Sample records with inhibition:
compound	experimentalTarget	testValue
Cc1ncc([N+](=O)[O-])n1CCOC(=O)c1ccc(Br)cc1	Trace amine-associated receptor 1 (Homo sapiens)	11.2
COc1cccc(CNC(=O)[C@H]2CCCN2C(=O)[C@H]2CCCN2C(=O)C2CCCCC2)c1	Trace amine-associated receptor 1 (Homo sapiens)	-16.5

The compound listed as `O=C(C[C@H]1CC[C@H]2[C@@H](COC[C@H](O)CN2C(=O)c2ccccn2)O1)N1CCN(c2ccccc2)CC1` shows inhibition equal to -9.63

The compound listed as CCCCCn1nnnc1C1c2ccccc2C(=O)N1Cc1ccco1 (centres undefined) shows inhibition equal to -12.2

The compound listed as `COc1ccc(SSc2ccc(OC)cc2C(=O)O)c(C(=O)O)c1` shows inhibition equal to -9.02

The compound listed as CCCCC(O)C1=C[N+](=O)CC=C1 (centres undefined) shows inhibition equal to 0.52

The compound listed as `CCCCNC(=O)CCn1nc(-c2ccc(Cl)cc2)ccc1=O` shows inhibition equal to -14.1

The compound listed as Cc1ccc(F)c(S(=O)(=O)NC(=O)C2(C)CCN2C(=O)CCc2cccs2)c1 (centres undefined) shows inhibition equal to -14.2

The compound listed as `NC(N)=N/N=C/c1ccc(OCc2ccc(Cl)cc2Cl)cc1` shows inhibition equal to 73.3

The compound listed as OC(CN=c1sc2ccccc2n1CC(O)COc1ccccc1)COc1ccccc1 (centres undefined) shows inhibition equal to 67.2

====

# experimentalTarget: Trace amine-associated receptor 1 (Homo sapiens)
# protocolText: blockers of beta-PEA-driven TAAR1 calcium signal – Fluo-8 calcium fluorescence, CHO RD-HGA16 cells, primary screen (AID 624466);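 further: 0% = DMSO plus EC80 beta-PEA response and 100% = DMSO alone without agonist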
# conditionNotes: CHO RD-HGA16 TAAR1, Fluo-8 calcium fluorescence, antagonist; at 3 µM
Out of some 360,000 compounds screened, about 5,400 (1.5%) were called active.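 Rule for the calls: active = inhibition above a per-plate cutoff, the mean inhibition of test compounds on that plate plus 3 SD (cut at about 49% in these data); inactive = the rest.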 The sample as a whole holds a higher share of actives than the screen did.
Entry note: the call must match one of y = active, n = inactive

compound	answerLabel
COC(=O)[C@H]1Cc2cnoc2C[C@]1(C)C(=O)O	n

-- ask Name the outcome recorded for `CC(C)Oc1cc(F)ccc1-c1cc(C(=O)Nc2cccc(Cl)c2)[nH]n1` in the assay.
-- reply n

-- ask Name the outcome recorded for COc1ccc(NC(=O)C(c2ccncc2)n2c(=O)c(-c3cc4ccccc4[nH]3)nc3ccccc32)cc1 (configuration not stated) in the assay.
-- reply n

-- ask Name the outcome recorded for `CCc1ccccc1OCC(=O)Nc1ccc(C)c(S(=O)(=O)N2CCCCCC2)c1` in the assay.
-- reply y

-- ask Name the outcome recorded for `Cc1ccc(C(=O)N2CC(=O)Nc3ccccc32)o1` in the assay.
-- reply n

-- ask Name the outcome recorded for `Cc1ccccc1OCC(=O)Nc1ccc(N2CCN(C(=O)C(C)C)CC2)c(Cl)c1` in the assay.
-- reply y

-- ask Name the outcome recorded for `COC(=O)c1cc(S(=O)(=O)Nc2ccc(C)c(F)c2)c[nH]1` in the assay.
-- reply n

-- ask Name the outcome recorded for `COc1ccccc1C(=O)Nc1ccc(C)c(S(=O)(=O)N2CCCCC2)c1` in the assay.
-- reply n

-- ask Name the outcome recorded for CCC(C(=O)OCC(=O)Nc1ccc(C(=O)Nc2ccc(OC)cc2)cc1)c1ccccc1 (configuration not stated) in the assay.
-- reply y

-- ask Name the outcome recorded for CCC(C(=O)OCC(=O)Nc1ccccc1-c1ccccc1)c1ccccc1 (configuration not stated) in the assay.
-- reply n

-- ask Name the outcome recorded for COC(=O)c1ccc(C23CC4(C2)[C@H](CN(Cc2cccnc2)[C@@H]4c2ccccc2)C3c2ccc(Cl)nc2)cc1 (some centres not stated) in the assay.
-- reply n
